- Experiment notes: Cyclodextrin solubilization screening of AOL
- Format: physicochemical
- Assay setup: aqueous cyclodextrin solution, 25 °C, aqueous with cosolvent or surfactant or cyclodextrin, thermodynamic from solid, SBE-β-CD 100 mM, stirring 3 h
Value type: solubility at 3 h (µg/mL)
Just the number please, in µg/mL, no unit attached.

# lookup: solubility at 3 h of COc1ccc(-c2cc(=S)ss2)cc1 [AOL]
142

---

- Experiment notes: Cyclodextrin-AOL solubility diagrams
- Format: physicochemical
- Assay setup: aqueous SBE-β-CD solution, 4 °C, aqueous with cosolvent or surfactant or cyclodextrin, thermodynamic from solid, SBE-β-CD 30% (w/w), 20° C. followed by 48 hours at 4° C.
Value type: solubility (mg/mL)
Please reply with the bare figure in mg/mL and do not write the unit itself.

Returns the measured solubility for the input compound. Input: COc1ccc(-c2cc(=S)ss2)cc1
0.286

---

- Experiment notes: Solubility testing in buffer containing media
- Format: physicochemical
- Assay setup: buffered aqueous HP-β-CD medium, pH 6.5, aqueous with cosolvent or surfactant or cyclodextrin, HP-β-CD 20.0% (w/w), Phosphate 6.5 (100 μM), room temperature; read-out: AOL solubility
Value type: solubility (µg/mL)
# unit: µg/mL | format: bare number

Fill blank: measured solubility of the molecule COc1ccc(-c2cc(=S)ss2)cc1 is ____.
274

---

- Experiment notes: Solubility testing in buffer containing media
- Assay type: physicochemical
- Assay setup: aqueous SBE-β-CD medium with buffer, pH 5.5, aqueous with cosolvent or surfactant or cyclodextrin, SBE-β-CD 40.0% (w/w), Citrate (100 μM), room temperature; read-out: AOL solubility
Value type: solubility (µg/mL)
Express it in µg/mL; write the number only.

Need solubility, item COc1ccc(-c2cc(=S)ss2)cc1
1140

---

- Experiment notes: Solubility testing in buffer containing media
- Format: physicochemical
- Assay setup: buffered aqueous HP-β-CD medium, pH 7.5, aqueous with cosolvent or surfactant or cyclodextrin, HP-β-CD 20.0% (w/w), Phosphate 7.5 (100 μM), room temperature; read-out: AOL solubility
Value type: solubility (µg/mL)
Your answer is read as µg/mL, so omit the unit and give the number.

May I ask what solubility has been recorded for COc1ccc(-c2cc(=S)ss2)cc1 ?
283

---

- Experiment notes: Cyclodextrin solubilization screening of AOL
- Format: physicochemical
- Assay setup: aqueous cyclodextrin solution, 25 °C, aqueous with cosolvent or surfactant or cyclodextrin, thermodynamic from solid, α-CD 100 mM, stirring 20 h
Value type: solubility at 20 h (µg/mL)
Please reply with the bare figure in µg/mL and do not write the unit itself.

Which measured solubility at 20 h value corresponds to COc1ccc(-c2cc(=S)ss2)cc1 ?
13.5

---

- Experiment notes: Cyclodextrin-AOL solubility diagrams
- Assay type: physicochemical
- Assay setup: aqueous cyclodextrin solution, 20 °C, aqueous with cosolvent or surfactant or cyclodextrin, thermodynamic from solid, HP-β-CD 20% (w/w), 20° C.; read-out: AOL solubility
Value type: solubility at 4 h (µg/mL)
Supply the numeric figure in µg/mL, leaving out any unit text.

State the recorded solubility at 4 h for this entry: COc1ccc(-c2cc(=S)ss2)cc1
145

---

- Experiment notes: Co-solvent addition: AOL solubility
- Assay type: physicochemical
- Assay setup: aqueous HP-β-CD solution, aqueous with cosolvent or surfactant or cyclodextrin, thermodynamic from solid, HP-β-CD 20% (w/w), PVP 12PF 0.5% (w/w)
Value type: solubility at 4 h (µg/mL)
# number only, unit µg/mL dropped from output

Would you kindly share the measured solubility at 4 h for COc1ccc(-c2cc(=S)ss2)cc1 ?
296

The measurements presented in this section are drawn from patent US20210308173A1.
